Entry source: patent US6858638B2

Biological target: Aurora2 kinase (Homo sapiens, UniProt O14965)
Construct: A complete recombinant Aurora2 enzyme; His tag (N); made in house; host or cells: E. coli
Sequence (O14965 1-403): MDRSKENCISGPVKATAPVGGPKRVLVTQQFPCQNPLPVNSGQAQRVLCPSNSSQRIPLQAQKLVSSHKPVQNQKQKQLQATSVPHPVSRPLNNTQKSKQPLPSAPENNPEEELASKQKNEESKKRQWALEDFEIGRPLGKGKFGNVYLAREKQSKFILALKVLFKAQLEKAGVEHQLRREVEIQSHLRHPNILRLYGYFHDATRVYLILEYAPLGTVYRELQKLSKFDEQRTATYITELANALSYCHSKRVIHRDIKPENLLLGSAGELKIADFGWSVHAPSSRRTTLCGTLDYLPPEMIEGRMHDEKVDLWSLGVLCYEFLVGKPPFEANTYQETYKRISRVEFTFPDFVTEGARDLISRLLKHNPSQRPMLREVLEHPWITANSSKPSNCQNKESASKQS
Assay: Aurora2 kinase radioactivity scintillation assay using nickel chelate (NuMA substrate)
Type: biochemical
Conditions: 10 μM
reported metric: Aurora2 % inhib at 10 μM

Completed entries (count: 3):
Q. # return recorded Aurora2 % inhib at 10 μM for input CC(=O)Nc1ccc(S(=O)(=O)Nc2ccc3[nH]nc(-c4ccccc4)c3c2)cc1 [Example 118]
A. 52%

Q. # return recorded Aurora2 % inhib at 10 μM for input CC(=O)Nc1ccc(S(=O)(=O)Nc2ccc3[nH]nc(-c4ccccc4)c3c2)cc1 [Example 95]
A. 30%

Q. # return recorded Aurora2 % inhib at 10 μM for input CS(=O)(=O)c1ccccc1S(=O)(=O)Nc1ccc2[nH]nc(-c3ccc(O)cc3)c2c1
A. 94%

---
Q. # return recorded Aurora2 % inhib at 10 μM for input CS(=O)(=O)c1ccccc1S(=O)(=O)Nc1ccc2[nH]nc(-c3cccs3)c2c1
A. 91%

---

molecular target: Aurora2 kinase (Homo sapiens); construct: A complete recombinant Aurora2 enzyme; His tag (N); made in house; host or cells: E. coli; test: Aurora2 kinase radioactivity scintillation assay using nickel chelate (NuMA substrate); format: biochemical; details: 10 μM; read-out: Aurora2 % inhib at 10 μM
Below, each of the compounds is paired with its reported inhibition at 10 µM value.
// units = %; emit number, no label

Q. # return recorded inhibition at 10 µM for input CS(=O)(=O)c1ccccc1S(=O)(=O)Nc1ccc2[nH]nc(/C=C/c3ccccc3)c2c1
A. 100

Q. # return recorded inhibition at 10 µM for input CN(C)c1cccc2c(S(=O)(=O)Nc3cccc(-c4n[nH]c5ccc(NS(=O)(=O)c6ccccc6S(C)(=O)=O)cc45)c3)cccc12
A. 61

Q. # return recorded inhibition at 10 µM for input Nc1n[nH]c2ccc(NS(=O)(=O)c3cccc(F)c3)cc12
A. 95

Q. # return recorded inhibition at 10 µM for input Cc1ccccc1S(=O)(=O)Nc1ccc2[nH]nc(-c3ccccc3)c2c1
A. 100

Q. # return recorded inhibition at 10 µM for input Cc1cccc(S(=O)(=O)Nc2ccc3[nH]nc(-c4ccccc4)c3c2)c1
A. 99

---
Q. # return recorded inhibition at 10 µM for input CC(C)c1cccc(-c2n[nH]c3ccc(NS(=O)(=O)c4ccccc4S(C)(=O)=O)cc23)c1
A. 84

Q. # return recorded inhibition at 10 µM for input CCOc1cccc(-c2n[nH]c3ccc(NS(=O)(=O)c4ccccc4S(C)(=O)=O)cc23)c1
A. 90

Q. # return recorded inhibition at 10 µM for input O=S(=O)(Nc1ccc2[nH]nc(-c3ccccc3)c2c1)c1ccc(F)cc1
A. 100

---

Molecular target: human FAK (Homo sapiens, UniProt Q05397)
Construct: The complete cDNA of human FAK; made in house; host or cells: baculovirus expression system (vector pFastBac HTc)
Sequence (Q05397 whole entry): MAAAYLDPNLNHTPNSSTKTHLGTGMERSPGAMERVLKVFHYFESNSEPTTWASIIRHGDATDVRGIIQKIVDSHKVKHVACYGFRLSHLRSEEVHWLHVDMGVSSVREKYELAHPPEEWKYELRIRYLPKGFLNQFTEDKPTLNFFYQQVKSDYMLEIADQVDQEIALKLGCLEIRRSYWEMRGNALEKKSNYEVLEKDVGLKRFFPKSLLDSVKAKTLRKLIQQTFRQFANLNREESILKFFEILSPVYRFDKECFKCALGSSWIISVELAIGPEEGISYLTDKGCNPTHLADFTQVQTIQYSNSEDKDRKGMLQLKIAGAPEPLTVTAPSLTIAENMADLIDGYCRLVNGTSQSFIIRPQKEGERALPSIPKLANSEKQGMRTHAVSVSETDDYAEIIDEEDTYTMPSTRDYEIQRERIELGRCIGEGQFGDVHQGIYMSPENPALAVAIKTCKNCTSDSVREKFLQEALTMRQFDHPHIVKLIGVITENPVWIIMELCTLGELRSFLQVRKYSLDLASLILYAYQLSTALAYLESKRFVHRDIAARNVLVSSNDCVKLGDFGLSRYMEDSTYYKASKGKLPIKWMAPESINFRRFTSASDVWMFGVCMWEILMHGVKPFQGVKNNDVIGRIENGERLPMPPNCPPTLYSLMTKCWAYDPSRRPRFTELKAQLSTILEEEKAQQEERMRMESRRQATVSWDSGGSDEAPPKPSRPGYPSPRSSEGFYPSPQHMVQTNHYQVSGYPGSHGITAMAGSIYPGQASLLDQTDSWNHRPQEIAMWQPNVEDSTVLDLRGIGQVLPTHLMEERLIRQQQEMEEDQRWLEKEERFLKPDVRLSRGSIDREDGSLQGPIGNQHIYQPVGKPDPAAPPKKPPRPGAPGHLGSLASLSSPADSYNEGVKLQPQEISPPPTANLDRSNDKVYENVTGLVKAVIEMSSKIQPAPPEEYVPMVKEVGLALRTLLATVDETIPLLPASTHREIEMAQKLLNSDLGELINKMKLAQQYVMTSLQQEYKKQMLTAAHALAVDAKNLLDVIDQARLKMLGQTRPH
Experiment: FAK autophosphorylation inhibition, time resolved fluorescence (HTRF) assay
Format: biochemical
Conditions: 10 μM (values without asterisk); read-out: FAK % inhib at 10 μM
Method: The inhibitory activity of the compounds on FAK is determined by measuring the inhibition of the autophosphorylation of the enzyme using a time resolved fluorescence (HTRF) assay. […] The kinase activity is determined by incubating the enzyme (6.6 μg/ml) with various concentrations of test compound in a 50 mM Hepes buffer, pH=7.2, containing 10 mM MgCl2, 100 μM Na3VO4 and 15 μM d'ATP for 1 hour at 37° C. […] The long-lived signal specific for XL-665 is measured in a Packard Discovery plate counter. […]
Below, each of the compounds is paired with its reported inhibition at 10 µM value.
// units = %; emit number, no label

Completed entries (count: 2):
Q. # return recorded inhibition at 10 µM for input CS(=O)(=O)c1ccccc1S(=O)(=O)Nc1ccc2[nH]nc(-c3ccc(CO)cc3)c2c1 [Example 191]
A. 96

Q. # return recorded inhibition at 10 µM for input COc1ccc(-c2n[nH]c3ccc(NS(=O)(=O)c4ccccc4)cc23)cc1 [Example 31]
A. 75

---
Q. # return recorded inhibition at 10 µM for input CS(=O)(=O)c1ccccc1S(=O)(=O)Nc1ccc2[nH]nc(-c3ccc([N+](=O)[O-])cc3)c2c1 [Example 66]
A. 75

Q. # return recorded inhibition at 10 µM for input CS(=O)(=O)c1ccccc1S(=O)(=O)Nc1ccc2[nH]nc(-c3cccc([N+](=O)[O-])c3)c2c1 [Example 162]
A. 97

---

target: human KDR enzyme (Homo sapiens); construct: The cytoplasmic domain of the human KDR enzyme; GST; made in house; host or cells: SF21 insect cells (baculovirus); test: KDR substrate (PLCγ) phosphorylation, scintillation assay; format: biochemical; details: 10 μM; read-out: KDR % inhib at 10 μM
Below, each of the compounds is paired with its reported inhibition at 10 µM value.
// units = %; emit number, no label

Q. # return recorded inhibition at 10 µM for input CS(=O)(=O)c1ccccc1S(=O)(=O)Nc1ccc2[nH]nc(-c3ccc(F)cc3F)c2c1 [Example 217]
A. 70

Q. # return recorded inhibition at 10 µM for input CS(=O)(=O)c1ccccc1S(=O)(=O)Nc1ccc2[nH]nc(-c3cc(F)cc(F)c3)c2c1 [Example 102]
A. 77

Q. # return recorded inhibition at 10 µM for input O=S(=O)(Nc1ccc2[nH]nc(-c3ccccc3)c2c1)c1cccs1 [Example 110]
A. 91

Q. # return recorded inhibition at 10 µM for input O=S(=O)(Nc1ccc2[nH]nc(-c3ccccc3)c2c1)c1ccccc1C(F)(F)F [Example 109]
A. 91

---
Q. # return recorded inhibition at 10 µM for input COc1ccc(-c2n[nH]c3ccc(NS(=O)(=O)c4ccccc4S(C)(=O)=O)cc23)cc1OC [Example 198]
A. 66

---

molecular target: human KDR enzyme (Homo sapiens, UniProt P35968); construct: The cytoplasmic domain of the human KDR enzyme; GST; made in house; host or cells: SF21 insect cells (baculovirus); test: KDR substrate (PLCγ) phosphorylation, scintillation assay; format: biochemical; details: 10 μM; read-out: KDR % inhib at 10 μM
Sequence (P35968 786-1356 limits assumed): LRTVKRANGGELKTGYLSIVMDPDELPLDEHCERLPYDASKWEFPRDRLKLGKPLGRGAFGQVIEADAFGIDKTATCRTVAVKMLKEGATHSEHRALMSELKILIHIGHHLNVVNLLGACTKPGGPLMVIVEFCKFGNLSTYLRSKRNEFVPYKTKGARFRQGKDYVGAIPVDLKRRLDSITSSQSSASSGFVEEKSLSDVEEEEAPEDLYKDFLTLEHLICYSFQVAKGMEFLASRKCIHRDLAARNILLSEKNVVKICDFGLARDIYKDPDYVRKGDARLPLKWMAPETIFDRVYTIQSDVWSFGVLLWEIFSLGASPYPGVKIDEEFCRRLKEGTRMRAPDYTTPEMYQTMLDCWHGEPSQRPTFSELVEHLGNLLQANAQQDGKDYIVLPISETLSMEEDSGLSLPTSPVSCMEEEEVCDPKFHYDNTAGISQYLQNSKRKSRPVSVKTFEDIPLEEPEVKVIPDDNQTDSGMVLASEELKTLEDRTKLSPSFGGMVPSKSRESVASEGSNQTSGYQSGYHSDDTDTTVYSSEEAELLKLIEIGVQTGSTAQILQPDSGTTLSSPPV
Below, each of the compounds is paired with its reported inhibition at 10 µM value.
// units = %; emit number, no label

Q. # return recorded inhibition at 10 µM for input CS(=O)(=O)c1ccccc1S(=O)(=O)Nc1ccc2[nH]nc(-c3cccc(C(F)(F)F)c3)c2c1 [Example 175]
A. 68

Q. # return recorded inhibition at 10 µM for input O=C(O)c1cccc(S(=O)(=O)Nc2ccc3[nH]nc(-c4ccccc4)c3c2)c1 [Example 133]
A. 96

Q. # return recorded inhibition at 10 µM for input CS(=O)(=O)c1ccccc1S(=O)(=O)Nc1ccc2[nH]nc(-c3ccc(C(=O)O)cc3)c2c1 [Example 69]
A. 73

Q. # return recorded inhibition at 10 µM for input COc1ccccc1-c1n[nH]c2ccc(NS(=O)(=O)c3ccccc3S(C)(=O)=O)cc12 [Example 183]
A. 37

Q. # return recorded inhibition at 10 µM for input O=S(=O)(Oc1ccc2[nH]ncc2c1)c1cccc(F)c1 [Example 17, 1H-Indazol-5-yl 3-fluorobenzenesulfonate]
A. 46

Q. # return recorded inhibition at 10 µM for input CS(=O)(=O)c1ccccc1S(=O)(=O)Nc1ccc2[nH]nc(-c3ccc(OCc4ccccc4)cc3)c2c1 [Example 209]
A. 34

Q. # return recorded inhibition at 10 µM for input O=C(Nc1n[nH]c2ccc(NS(=O)(=O)c3cc(F)cc(F)c3)cc12)c1ccccc1 [Example 46]
A. 82

Q. # return recorded inhibition at 10 µM for input Cc1cccc(S(=O)(=O)Nc2ccc3[nH]nc(-c4ccccc4)c3c2)c1 [Example 138]
A. 92

Q. # return recorded inhibition at 10 µM for input COc1cccc(S(=O)(=O)Nc2ccc3[nH]nc(-c4ccccc4)c3c2)c1 [Example 156]
A. 94

Q. # return recorded inhibition at 10 µM for input O=S(=O)(Nc1ccc2[nH]nc(-c3cc4ccccc4[nH]3)c2c1)c1ccccc1OC(F)(F)F [Example 84]
A. 98

---
Q. # return recorded inhibition at 10 µM for input CS(=O)(=O)c1ccccc1S(=O)(=O)Nc1ccc2[nH]nc(-c3cccc(F)c3)c2c1 [Example 182]
A. 68

Q. # return recorded inhibition at 10 µM for input Cc1n[nH]c2ccc(NS(=O)(=O)c3cccc(F)c3)cc12 [Example 9]
A. 18

Q. # return recorded inhibition at 10 µM for input O=S(=O)(Nc1ccc2[nH]nc(O)c2c1)c1cccc(F)c1 [Example 16]
A. 8

Q. # return recorded inhibition at 10 µM for input CS(=O)(=O)c1ccccc1S(=O)(=O)Nc1ccc2[nH]nc(-c3ccccc3F)c2c1 [Example 188]
A. 64

Q. # return recorded inhibition at 10 µM for input CS(=O)(=O)c1ccccc1S(=O)(=O)Nc1ccc2[nH]nc(NC(=O)c3ccccc3)c2c1 [Example 45]
A. 55

Q. # return recorded inhibition at 10 µM for input COc1ccc(-c2n[nH]c3ccc(NS(=O)(=O)c4ccccc4S(C)(=O)=O)cc23)c(OC)c1 [Example 199]
A. 45
